Value source: ChEMBL document CHEMBL1201862

System: HOP-92
ASSAY DETAILS: NCI tumour cell line growth inhibition, 48 h
Activity calls are given as the source filed them. Cut-off read from the data, not from the text of the source: active = GI50 up to about 1.1 µM and inactive = higher.
Pick from T (active), F (inactive) when you respond.

Past entries and their recorded results:
                                   compound  label_class
0                          Cc1nnc2ccccc2c1O            F
1  CC(C)Cn1cnc2c(NCC(C)O)nc3ccccc3c21 (stereo not given)            F
2  O=C(c1ccccc1)C(c1ccccc1)C1(O)C(=O)Nc2c(Cl)ccc(Cl)c21 (stereo not given)            F
3       COc1ccc(C2=C(N)c3c(OC)cccc3C2=O)cc1            F

Dear all, I need the recorded test outcome for "CN1/C(=C/C=C/C=C/C=C2C(=O)c3ccccc3C2=O)C(C)(C)c2ccccc21" , thank you.
F

Dear all, I need the recorded test outcome for "COC(=O)c1cc(Br)c(Br)n1C" , thank you.
F

Dear all, I need the recorded test outcome for "O=C1c2cccc([N+](=O)[O-])c2C(=O)N1c1ncn[nH]1" , thank you.
F

Dear all, I need the recorded test outcome for "C/C(CC(=O)Nc1cccc(C)c1C)=N\NC(N)=S" , thank you.
F

Dear all, I need the recorded test outcome for CC(C)N(C(C)C)S(=O)(=O)C[C@]12CC[C@H](CC13OCC(CS(=O)(=O)c1ccccc1)O3)C2(C)C (stereo not given in full) , thank you.
F

Dear all, I need the recorded test outcome for COc1ccc(C2SC(=N)Nc3c2c(C)nn3C(=O)c2ccc(Cl)cc2)cc1 (stereo not given) , thank you.
F

Dear all, I need the recorded test outcome for O=C(NC(c1ccccc1)C(O)C(=O)OCc1ccc2c(c1)C(=O)c1ccccc1C2=O)c1ccccc1 (stereo not given) , thank you.
F

Dear all, I need the recorded test outcome for "CCP(=O)(CC)C(Cl)Cl" , thank you.
F

Dear all, I need the recorded test outcome for "CN(NC(=O)CCCl)C1=NCCCCN1" , thank you.
F

Dear all, I need the recorded test outcome for "C(/Cc1ccc2c(c1)OCO2)=N\N=C1NCCCCN1" , thank you.
F

Dear all, I need the recorded test outcome for "C/C(=C/c1ccccc1)CN(C(=O)/C=C\Sc1ccccc1)C(C)(C)C" , thank you.
F

Dear all, I need the recorded test outcome for CCCCOP(C)(=O)C(NC(=O)OCC)(C(F)(F)F)C(F)(F)F (stereo not given) , thank you.
F
